target: human NPR1 (Homo sapiens); construct: host or cells: CHO-K1; assay: Cellular cGMP production assay, human NPR1 expressing CHO-K1 cells (CisBio HTRF); type: cell-based; details: maximum cGMP production as percentage of the maximum cGMP produced with ANP
Sequence (P16066 33-1061): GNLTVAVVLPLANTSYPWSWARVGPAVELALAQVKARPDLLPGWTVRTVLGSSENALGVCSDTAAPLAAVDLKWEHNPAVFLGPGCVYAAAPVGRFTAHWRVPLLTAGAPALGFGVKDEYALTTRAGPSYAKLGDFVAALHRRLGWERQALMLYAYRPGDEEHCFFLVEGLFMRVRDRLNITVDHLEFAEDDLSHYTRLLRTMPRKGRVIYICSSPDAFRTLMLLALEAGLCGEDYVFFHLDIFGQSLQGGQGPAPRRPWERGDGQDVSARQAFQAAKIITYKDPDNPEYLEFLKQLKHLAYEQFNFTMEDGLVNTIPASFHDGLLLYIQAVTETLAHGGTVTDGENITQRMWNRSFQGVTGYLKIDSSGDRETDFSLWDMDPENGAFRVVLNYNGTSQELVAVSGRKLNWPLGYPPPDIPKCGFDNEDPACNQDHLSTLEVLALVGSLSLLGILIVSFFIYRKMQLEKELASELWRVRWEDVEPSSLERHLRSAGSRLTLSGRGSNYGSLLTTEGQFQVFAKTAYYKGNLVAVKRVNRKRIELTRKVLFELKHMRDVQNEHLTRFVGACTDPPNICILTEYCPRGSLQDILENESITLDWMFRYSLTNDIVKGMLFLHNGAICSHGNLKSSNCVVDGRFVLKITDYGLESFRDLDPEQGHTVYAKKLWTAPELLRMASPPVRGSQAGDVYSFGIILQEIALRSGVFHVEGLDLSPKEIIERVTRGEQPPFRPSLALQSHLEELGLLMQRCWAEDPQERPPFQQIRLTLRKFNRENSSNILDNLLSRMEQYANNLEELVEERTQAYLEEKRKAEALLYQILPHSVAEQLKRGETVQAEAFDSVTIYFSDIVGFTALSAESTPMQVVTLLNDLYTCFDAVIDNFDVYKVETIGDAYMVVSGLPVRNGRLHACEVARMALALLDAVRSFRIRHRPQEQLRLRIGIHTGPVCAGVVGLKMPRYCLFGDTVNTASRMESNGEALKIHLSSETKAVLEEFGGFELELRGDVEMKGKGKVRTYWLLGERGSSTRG
Answer each item with its documented Human NPR1 Amax (% of ANP).

Quick one: give measured Human NPR1 Amax (% of ANP) for CC[C@H]([C@H]1CC[C@H](C(=O)O)CC1)N(C)c1nc2c(c(NC(CN3CCC[C@H](C)C3)c3cnn(CF)c3)n1)C[C@H](c1ccccc1)CC2 (stereo partly shown) 97.223 % of ANP

Quick one: give measured Human NPR1 Amax (% of ANP) for `CC[C@@H](N(C)c1nc2c(c(N[C@@H](CN3C4CCCC3CC4)c3sc(C)nc3C)n1)C[C@H](c1cccc(F)c1)CC2)C12CC(C(=O)O)(C1)C2` 106.085 % of ANP

Quick one: give measured Human NPR1 Amax (% of ANP) for `CC[C@H]([C@H]1CC[C@H](C(=O)O)CC1)N(C)c1nc2c(c(N[C@@H](CN3C[C@@H](C)C[C@H](OC)C3)c3cnn(C)c3)n1)C[C@H](c1ccccc1)CC2` 103.67 % of ANP

Quick one: give measured Human NPR1 Amax (% of ANP) for `CC[C@H]([C@H]1CC[C@H](C(=O)O)CC1)N(C)c1nc2c(c(N[C@@H](CN3CCCCC3)c3cnn(CC)c3)n1)C[C@@H](c1cccc(F)c1)CC2` 95.817 % of ANP

Quick one: give measured Human NPR1 Amax (% of ANP) for `CC[C@@H](Nc1nc2c(c(N[C@@H](CN3C4CCCC3CCC4)c3cnn(CC)c3)n1)C[C@H](c1ccccc1)CC2)[C@H]1CC[C@H](C(=O)O)CC1` 106.664 % of ANP

Quick one: give measured Human NPR1 Amax (% of ANP) for `CC[C@H](N(C)c1nc2c(c(N[C@@H](CN3C4CCCC3CC4)c3cnn(C)c3)n1)C[C@](C)(c1ccccc1)CC2)C12CC(C(=O)O)(C1)C2` 98.634 % of ANP

Quick one: give measured Human NPR1 Amax (% of ANP) for `CC[C@H]([C@H]1CC[C@H](C(=O)O)CC1)N(C)c1nc2c(c(N[C@@H](CN3C4CCCC3CCC4)c3cnn(CC)c3)n1)C[C@H](c1cccc(F)c1)CC2` 97.609 % of ANP

Quick one: give measured Human NPR1 Amax (% of ANP) for CC[C@H]([C@H]1CC[C@H](C(=O)O)CC1)N(C)c1nc2c(c(N[C@@H](CN3CCC4CC4C3)c3cnn(C)c3)n1)C[C@H](c1ccccc1)CC2 (stereo partly shown) 99.406 % of ANP

Quick one: give measured Human NPR1 Amax (% of ANP) for `CC[C@@H](N(C)c1nc2c(c(N[C@@H](CN3CCC[C@H](C)C3)c3ccnn3C)n1)C[C@H](c1cccc(F)c1)CC2)C12CC(C(=O)O)(C1)C2` 97.313 % of ANP

Quick one: give measured Human NPR1 Amax (% of ANP) for `CC[C@@H](Nc1nc2c(c(N[C@@H](CN3CCCCC3)c3cnn(C)c3)n1)C[C@H](c1ccccc1)CC2)[C@H]1CC[C@H](C(=O)O)CC1` 102.955 % of ANP

Quick one: give measured Human NPR1 Amax (% of ANP) for `CC(C)n1cc([C@H](CN2CCCCC2)Nc2nc(N[C@H](C)c3ccc(C(=O)O)cc3)nc3c2C[C@H](c2ccccc2)CC3)cn1` 96.419 % of ANP

Quick one: give measured Human NPR1 Amax (% of ANP) for `CC[C@@H](Nc1nc2c(c(N[C@@H](CN3C4CC5CC(C4)CC3C5)c3cnn(C)c3)n1)C[C@H](c1ccccc1)CC2)[C@H]1CC[C@H](C(=O)O)CC1` 91.827 % of ANP

Quick one: give measured Human NPR1 Amax (% of ANP) for `CC[C@@H](N(C)c1nc2c(c(N[C@@H](CN3C4CCCC3CCC4)c3ccnn3C)n1)C[C@H](c1ccccc1)CC2)C12CC(C(=O)O)(C1)C2` 94.632 % of ANP

Quick one: give measured Human NPR1 Amax (% of ANP) for `CC[C@@H]([C@H]1CC[C@@](F)(C(=O)O)CC1)N(C)c1nc2c(c(N[C@H](CN3CCC[C@@H](C)C3)c3cnn(C)c3)n1)C[C@@H](c1ccccc1)CC2` 96.122 % of ANP

Quick one: give measured Human NPR1 Amax (% of ANP) for `CC[C@@H](N(C)c1nc2c(c(N[C@@H](CN3CCC[C@H](CF)C3)c3cnn(C)c3)n1)C[C@](C)(c1ccccc1)CC2)C12CC(C(=O)O)(C1)C2` 96.068 % of ANP

Quick one: give measured Human NPR1 Amax (% of ANP) for `CC[C@@H](Nc1nc2c(c(N[C@@H](CN3CCCCC3)c3scnc3C)n1)C[C@H](c1ccccc1)CC2)[C@H]1CC[C@H](C(=O)O)CC1` 108.428 % of ANP

Quick one: give measured Human NPR1 Amax (% of ANP) for `CC[C@H]([C@H]1CC[C@H](C(=O)O)CC1)N(C)c1nc2c(c(N[C@@H](CN3CCC[C@H](C)C3)c3ccnn3C)n1)C[C@H](c1cccc(F)c1)CC2` 108.479 % of ANP

Quick one: give measured Human NPR1 Amax (% of ANP) for `CC[C@H]([C@H]1CC[C@H](C(=O)O)CC1)N(C)c1nc2c(c(N[C@@H](CN3C4CCCC3COC4)c3cnn(C)c3)n1)C[C@H](c1ccccc1)CC2` 67.375 % of ANP

Quick one: give measured Human NPR1 Amax (% of ANP) for `CC[C@@H](N(C)c1nc2c(c(N[C@@H](CN3C4CCCC3CC4)c3cnn(C)c3)n1)C[C@H](c1ccc(F)cc1)CC2)C12CC(C(=O)O)(C1)C2` 102.816 % of ANP

Quick one: give measured Human NPR1 Amax (% of ANP) for `CC[C@@H](Nc1nc2c(c(N[C@@H](CN3C4CC5CC(C4)CC3C5)c3cnn(CC)c3)n1)C[C@H](c1ccccc1)CC2)[C@H]1CC[C@H](C(=O)O)CC1` 101.675 % of ANP

Quick one: give measured Human NPR1 Amax (% of ANP) for `CC[C@H]([C@H]1CC[C@H](C(=O)O)CC1)N(C)c1nc2c(c(N[C@@H](CN3C4CCCC3CCC4)c3cnn(C)c3)n1)C[C@H](c1ccccc1)CC2` 104.085 % of ANP

Quick one: give measured Human NPR1 Amax (% of ANP) for `CC[C@@H](N(C)c1nc2c(c(N[C@@H](CN3CCC[C@H](C)C3)c3cnn(C)c3)n1)C[C@H](c1ccccc1)CC2)C12CC(C(=O)O)(C1)C2` 99.256 % of ANP
